- PROTOCOL NOTES: glucagon-like peptide 1 release enhancers, primary assay, NCI-H716 cell line, NPC library (AID 1117341); note: reference of the scale not given here
- CONDITION DETAILS: NCI-H716 cells, at 10 µM
Activity calls are given as the source filed them.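 Rule for the calls: active = compound raises GLP1 secretion from the human gut endocrine cells, with no numeric limit stated; inactive = the rest.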
Please state which outcome applies, choosing from True = active, False = inactive

These solved cases illustrate the format of a correct answer.
• N[C@@H](Cc1ccc(N(CCCl)CCCl)cc1)C(=O)O = False
• O=c1oc2ccccc2c(O)c1Cc1c(O)c2ccccc2oc1=O = False
• CCN(CC)N(O)N=O = False
• C#C[C@]1(O)C=C[C@H]2[C@@H]3CCC4=CC(=O)CC[C@@H]4[C@H]3CC[C@@]21CC = False
• O=C(CCCN1CCC(n2c(=O)[nH]c3ccccc32)CC1)c1ccc(F)cc1 = False

Kindly consider the entry below.
Request: What did this assay record as the result for O=C(O)COc1ccccc1 ?
Result: False

###

- PROTOCOL NOTES: stimulators of insulin release from INS-1E, primary screen, cell-based, 5 mM glucose, NPC library (AID 1117329); note: reference of the scale not given here
- CONDITION DETAILS: rat INS-1E insulin secretion, at 10 µM
The source made the active and inactive calls.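 Rule for the calls: active = compound raises insulin release from rat beta cells at 5 mM glucose, no numeric limit stated; inactive = the rest.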
Please state which outcome applies, choosing from yes (1) (active), no (0) (inactive)

These solved cases illustrate the format of a correct answer.
* CCN(CC)CCOC(=O)C(C)(c1ccccc1)c1ccccc1 | yes (1)
* Clc1ccc(CSC(Cn2ccnc2)c2ccc(Cl)cc2Cl)cc1 (stereo not given) | no (0)
* CN(C)[C@@H]1C(=O)C(C(N)=O)=C(O)[C@@]2(O)C(=O)C3=C(O)c4c(O)cccc4[C@@](C)(O)[C@H]3C[C@@H]12 | no (0)
* C[C@@H]1CN(C2CCC(C#N)(c3ccc(F)cc3)CC2)CC[C@]1(C(=O)O)c1ccccc1 (stereo not given in full) | no (0)
* CCN(CC)N(O)N=O | no (0)

Request: What did this assay record as the result for N#CC(C#N)=Cc1ccc(O)c(O)c1 ?
Result: no (0)

Request: What did this assay record as the result for CCO[C@H]1O[C@@H]2OC3(C)CC[C@H]4[C@H](C)CC[C@@H]([C@H]1C)[C@@]24OO3 ?
Result: no (0)

Request: What did this assay record as the result for O=C(O)c1cc(Oc2ccc(C(F)(F)F)cc2Cl)ccc1[N+](=O)[O-] ?
Result: no (0)

Request: What did this assay record as the result for CN1C(=O)CN=C(c2ccccc2)c2cc([N+](=O)[O-])ccc21 ?
Result: no (0)

Request: What did this assay record as the result for CC(C)NCC(O)c1ccc(N)c(C#N)c1 (stereo not given) ?
Result: no (0)

###

- PROTOCOL NOTES: inhibitors of polyQ protein aggregation (AID 1604)
- CONDITION DETAILS: polyglutamine-induced protein aggregation inhibition assay; stronger effect = higher value; concentration not given here
ATTRIBUTE MEASURED: inhibition of aggregation
Answer by giving the amount and then stating its unit.

Worked cases, answers included:
- NC(=O)CN1CCCC1=O: 1.59%
- CO[C@H]1[C@H](O)[C@@H](O[C@H]2CC[C@]3(C=O)C4CC[C@]5(C)[C@@H](C6=CC(=O)OC6)CC[C@]5(O)C4CC[C@@H]3C2)O[C@@H](C)[C@@H]1O (some centres undefined): 0%

Request: Item under review: CC(C)CC(NC(=O)C(Cc1ccccc1)NC(=O)CNC(=O)CNC(=O)C(N)Cc1ccc(O)cc1)C(=O)O (centres undefined) . Reported inhibition of aggregation?
Result: 27.9%

Request: Item under review: C[C@@]1(C(=O)O)CC[C@]2(C)CC[C@]3(C)C4=CC=C5C=C(O)C(=O)C=C5[C@]4(C)CC[C@@]3(C)[C@@H]2C1 . Reported inhibition of aggregation?
Result: 11.8%
